test system: Human immunodeficiency virus 1; assay: Antiviral activity against HIV1 LAV1 in human PBM cells by RT assay; format: functional, organism-based; details: Human immunodeficiency virus 1, LAV1, PBMC

>  <MOLECULE>
Cc1cn([C@@H]2C=C(F)[C@@H](CO)C2)c(=O)[nH]c1=O

>  <EC90>
> 100 µM

$$$$
>  <MOLECULE>
Nc1nc2c(ncn2[C@@H]2C=C(F)[C@@H](CO)C2)c(=O)[nH]1

>  <EC90>
> 100 µM

$$$$
>  <MOLECULE>
Nc1ncnc2c1ncn2[C@H]1C=C(F)[C@H](CO)C1

>  <EC90>
40.6 µM

$$$$
>  <MOLECULE>
Nc1nc2c(ncn2[C@H]2C=C(F)[C@H](CO)C2)c(=O)[nH]1

>  <EC90>
2.8 µM

$$$$
>  <MOLECULE>
Cc1cn([C@H]2C=C(F)[C@H](CO)C2)c(=O)[nH]c1=O

>  <EC90>
> 100 µM

$$$$
>  <MOLECULE>
Nc1ccn([C@@H]2C=C(F)[C@@H](CO)C2)c(=O)n1

>  <EC90>
72 µM

$$$$
>  <MOLECULE>
Nc1ncnc2c1ncn2[C@@H]1C=C(F)[C@@H](CO)C1

>  <EC90>
33.5 µM

$$$$
